# system_name: T1, human prolactin receptor (human, UniProt P16471 25-622)
# T1 sequence (looked up): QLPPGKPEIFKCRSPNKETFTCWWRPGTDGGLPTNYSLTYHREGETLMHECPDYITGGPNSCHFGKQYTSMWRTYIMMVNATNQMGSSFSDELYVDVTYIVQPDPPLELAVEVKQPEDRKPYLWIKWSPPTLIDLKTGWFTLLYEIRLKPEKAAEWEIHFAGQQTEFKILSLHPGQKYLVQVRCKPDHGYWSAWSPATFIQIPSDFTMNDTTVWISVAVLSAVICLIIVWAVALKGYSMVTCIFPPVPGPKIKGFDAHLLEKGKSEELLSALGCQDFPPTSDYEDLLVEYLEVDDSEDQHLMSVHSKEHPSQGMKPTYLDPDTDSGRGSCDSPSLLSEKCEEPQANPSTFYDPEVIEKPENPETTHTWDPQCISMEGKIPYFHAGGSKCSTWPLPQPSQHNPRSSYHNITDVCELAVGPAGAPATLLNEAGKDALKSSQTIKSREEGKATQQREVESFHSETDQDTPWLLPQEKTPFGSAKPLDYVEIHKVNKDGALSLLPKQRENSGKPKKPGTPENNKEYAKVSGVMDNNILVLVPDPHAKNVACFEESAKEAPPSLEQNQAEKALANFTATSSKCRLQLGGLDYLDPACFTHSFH
# protocol_text: cell-based or functional assay
quantity: Agonism Ba/F-LP cells (% of hPRL max activity)

binder | result
G129F-hPRL (ligand, human, UniProt P01236 29-227, looked up) LPICPGGAARCQVTLRDLFDRAVVLSHYIHNLSSEMFSEFDKRYTHGRGFITKAINSCHTSSLATPEDKEQAQQMNQKDFLSLIVSILRSWNEPLYHLVTEVRGMQEAPEAILSKAVEIEEQTKRLLEFMELIVSQVHPETKENEIYPVWSGLPSLQMADEESRLSAYYNLLHCLRRDSHKIDNYLKLLKCRIIHNNNC | 19.1 % of hPRL max activity
G129N-hPRL (ligand, human, UniProt P01236 29-227, looked up) LPICPGGAARCQVTLRDLFDRAVVLSHYIHNLSSEMFSEFDKRYTHGRGFITKAINSCHTSSLATPEDKEQAQQMNQKDFLSLIVSILRSWNEPLYHLVTEVRGMQEAPEAILSKAVEIEEQTKRLLENMELIVSQVHPETKENEIYPVWSGLPSLQMADEESRLSAYYNLLHCLRRDSHKIDNYLKLLKCRIIHNNNC | 26.4 % of hPRL max activity

Data provenance is patent EP2025683A1.
